biological target: cynomolgus monkey DPP4 (UniProt A0A075TEP6); assay: Steady-state inhibition of isolated cloned DPP4 at 37°C (gly-pro-pNA); details: mean ± SD (n)
Sequence (A0A075TEP6 1-766): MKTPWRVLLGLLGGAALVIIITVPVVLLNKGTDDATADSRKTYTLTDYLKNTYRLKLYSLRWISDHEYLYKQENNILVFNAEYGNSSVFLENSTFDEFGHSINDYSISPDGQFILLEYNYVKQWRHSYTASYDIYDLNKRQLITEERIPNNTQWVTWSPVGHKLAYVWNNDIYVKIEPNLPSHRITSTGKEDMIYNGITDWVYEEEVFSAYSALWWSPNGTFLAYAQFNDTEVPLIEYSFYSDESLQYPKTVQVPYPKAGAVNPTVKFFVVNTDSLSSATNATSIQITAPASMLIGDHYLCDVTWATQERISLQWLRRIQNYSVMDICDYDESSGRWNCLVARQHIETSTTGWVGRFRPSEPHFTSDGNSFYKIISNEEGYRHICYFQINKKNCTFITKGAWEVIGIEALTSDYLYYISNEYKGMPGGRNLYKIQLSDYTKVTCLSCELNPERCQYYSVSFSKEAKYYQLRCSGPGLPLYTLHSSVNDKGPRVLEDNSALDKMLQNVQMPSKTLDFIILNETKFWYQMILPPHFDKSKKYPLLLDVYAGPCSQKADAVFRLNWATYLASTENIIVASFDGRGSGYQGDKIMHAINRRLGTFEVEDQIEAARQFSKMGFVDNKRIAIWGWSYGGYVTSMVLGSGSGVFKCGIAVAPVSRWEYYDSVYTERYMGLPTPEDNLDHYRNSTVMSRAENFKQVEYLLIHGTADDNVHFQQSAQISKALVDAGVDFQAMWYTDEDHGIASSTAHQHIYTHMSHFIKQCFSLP
pKi: −log10 of the molar value.

{"molecule": "N#C[C@@H]1C[C@@H]2C[C@@H]2N1C(=O)[C@@H](N)C12CC3CC(O)(CC(O)(C3)C1)C2 [5-hydroxysaxagliptin]", "pKi": 8.54}

* * *

target: UniProt A0A2K5VHB7; experiment: Steady-state inhibition of isolated cloned DPP8 at 37°C (gly-pro-pNA); settings: mean ± SD (n)
Sequence (A0A2K5VHB7 1-898): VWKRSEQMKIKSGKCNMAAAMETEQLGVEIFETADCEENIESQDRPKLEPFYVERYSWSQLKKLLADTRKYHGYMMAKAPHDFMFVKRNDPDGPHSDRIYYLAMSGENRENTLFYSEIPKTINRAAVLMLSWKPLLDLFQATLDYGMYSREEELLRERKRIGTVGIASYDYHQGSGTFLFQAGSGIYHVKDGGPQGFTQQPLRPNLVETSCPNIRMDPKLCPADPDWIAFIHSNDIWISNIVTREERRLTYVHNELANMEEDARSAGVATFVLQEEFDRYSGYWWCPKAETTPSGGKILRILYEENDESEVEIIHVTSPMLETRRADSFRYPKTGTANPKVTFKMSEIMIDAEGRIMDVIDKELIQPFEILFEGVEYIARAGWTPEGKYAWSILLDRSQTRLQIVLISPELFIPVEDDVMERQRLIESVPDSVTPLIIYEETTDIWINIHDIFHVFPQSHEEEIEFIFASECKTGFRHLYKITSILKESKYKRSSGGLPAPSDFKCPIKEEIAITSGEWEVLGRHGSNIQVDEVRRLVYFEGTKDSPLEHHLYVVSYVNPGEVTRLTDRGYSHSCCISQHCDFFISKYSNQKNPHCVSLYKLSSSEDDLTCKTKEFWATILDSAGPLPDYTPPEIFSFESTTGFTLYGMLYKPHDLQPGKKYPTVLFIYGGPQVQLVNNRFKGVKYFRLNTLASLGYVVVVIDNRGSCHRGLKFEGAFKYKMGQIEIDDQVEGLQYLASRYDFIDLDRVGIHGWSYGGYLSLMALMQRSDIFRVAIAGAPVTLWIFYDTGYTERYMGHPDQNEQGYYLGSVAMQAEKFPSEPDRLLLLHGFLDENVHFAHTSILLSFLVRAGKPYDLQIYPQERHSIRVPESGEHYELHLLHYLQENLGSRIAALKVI
pKi: −log10 of the molar value.
observable: pKi

{"molecule": "N#C[C@@H]1C[C@@H]2C[C@@H]2N1C(=O)[C@@H](N)C12CC3CC(CC(O)(C3)C1)C2 [Saxagliptin]", "measured_target": "UniProt A0A2K5VHB7", "reported_measurement": 6.41}
{"molecule": "N#C[C@@H]1C[C@@H]2C[C@@H]2N1C(=O)[C@@H](N)C12CC3CC(O)(CC(O)(C3)C1)C2 [5-hydroxysaxagliptin]", "measured_target": "UniProt A0A2K5VHB7", "reported_measurement": 5.69}
{"molecule": "N[C@@H](CC(=O)N1CCn2c(nnc2C(F)(F)F)C1)Cc1cc(F)c(F)cc1F [Sitagliptin, reference compound]", "measured_target": "UniProt A0A2K5VHB7", "reported_measurement": 4.66}
